Assay: Unbound fraction in rat serum at 2 umol/kg, po or 1 umol/kg, iv administered as cassette dose
Assay type: ADME, organism-based
Conditions: at 2 µmol/kg
This section presents molecules with their documented fraction unbound values.

MOLECULAR_STRING	VALUE_TYPE	OBSERVED_MEASUREMENT
CC(C)N1CN(C2c3ccccc3CCc3ccccc32)n2cc(C(=O)O)c(=O)c(O)c2C1=O	fraction unbound	0.00293

// next entry
Given O=C(O)c1cn2c(c(O)c1=O)C(=O)N(CC1CC1)CN2C1c2ccccc2CCc2ccccc21 , respond with its fraction unbound.
0.0136

----------
This section presents compounds with their documented bioavailability values.
Assay: Bioavailability in rat at 2 umol/kg, po or 1 umol/kg, iv administered as cassette dose
Format: ADME, organism-based
Conditions: in vivo, at 2 µmol/kg
// units = %; emit number, no label

MOLECULAR_STRING	UNIT_ABBREVIATION	bioavailability
CC(C)N1CN(C2c3ccccc3CCc3ccccc32)n2cc(C(=O)O)c(=O)c(O)c2C1=O	%	10.1

// next entry
Given O=C(O)c1cn2c(c(O)c1=O)C(=O)N(CC1CC1)CN2C1c2ccccc2CCc2ccccc21 , respond with its bioavailability.
8.2

// data source = ChEMBL document CHEMBL5252563
